Ref: PubChem BioAssay (NCI)

- Tested on: IGROV1 ovarian
- Assay Procedure: NCI-60 one-dose screen, 48 h
- Reported Conditions: 10 µM unless noted
Compounds without any hit were thinned out: in the full panel of roughly 83,000, 20% have a hit. The source made the active and inactive calls. How the source made its calls: active means growth percent below 10; inactive means the rest.
The categories you may choose from are YES for active, NO for inactive

- O=[N+]([O-])c1ccc(Oc2ccc(-c3ccccc3)cc2)cc1: NO

Challenge: # lookup: test call for COc1cc(/C=C/C(=O)/C=C/c2cc3ccc(Cl)cc3n(Cc3ccccc3)c2=O)ccc1O
Response given: YES

Challenge: // return assay outcome for C=CCn1c(CN2CCN(c3cc4c(cc3F)c(=O)c(C(=O)O)cn4C3CC3)CC2)n[nH]c1=S
Response given: NO

Challenge: Please state the recorded outcome for this molecule: C=C1C(=O)O[C@H]2[C@H]1CC/C(COC(=O)c1cccnc1)=C\CC[C@@]1(C)O[C@@H]21
Response given: NO

Challenge: For this molecule, state the assay outcome: COc1cc(/C=C/C(=O)/C=C/c2cc3ccc(Cl)cc3[nH]c2=O)ccc1O
Response given: NO

Challenge: Returns: the outcome recorded for CC1(C)Cc2c(Br)c(Br)c(Br)c(OCC(O)CN3CCOCC3)c2O1 (stereo not drawn) in this assay.
Response given: YES

Challenge: Please let me know the test result on file for CC(C)NS(=O)(=O)c1cccc(-c2ccc3c4c(n(CCCN(C)C)c(=O)c3c2)-c2ccccc2C4=O)c1 .
Response given: NO

Challenge: Would you mind telling me which call this test gave C=C(C)[C@@H]1CC[C@]2(C(=O)O)CC[C@]3(C)[C@H](CC[C@@H]4[C@@]5(C)C[C@@H](CC#Cc6ccccc6)C(=O)C(C)(C)[C@@H]5CC[C@]43C)[C@@H]12 ?
Response given: NO

====

- System: MDA-MB-231 breast
- Assay Procedure: NCI-60 one-dose screen, 48 h (100 = growth as untreated, 0 = no growth, -100 = all killed)
- Reported Conditions: 10 µM unless noted
The panel holds about 83,000 compounds, 20% with a hit somewhere; the sample as a whole holds those more often.
Experimental Readout: growth (%)
// units = %; emit number, no label

Answered examples (4):
* COc1ccc(-c2nnc(N3CCN(C(=O)CN4CCN(c5ccc(OC)cc5)CC4)CC3)nc2-c2ccc(OC)cc2)cc1 | 8.6
* O=Cc1[nH]c(Sc2ccccc2)c2ccccc12 | 85.1
* COc1ccc2[nH]c3nc4cnccc4cc3c2c1 | 109
* OCCNc1nc(NCCO)nc(Nc2ccc(C3=NN(c4cc(Cl)cc(Cl)c4)C(c4ccccc4)C3)cc2)n1 (stereo not given) | 42.1

Challenge: Please report the measured growth for CCOC(=O)c1cnn(-c2nc(-c3ccc(F)cc3)c(C#N)c(N3CCOCC3)n2)c1N
Response given: 107

====

- Test system: MALME-3M melanoma
- Assay Procedure: NCI-60 one-dose screen, 48 h (100 = growth as untreated, 0 = no growth, -100 = all killed)
- Reported Conditions: 10 µM unless noted
Compounds without any hit were thinned out: in the full panel of roughly 83,000, 20% have a hit.
Decide by growth: equal to or exceeding 70% means Criterion met, less means Criterion not met.

• CC1(c2ccccc2Cl)NC(=O)NC1=O (centres undefined) = Criterion met
• CCOC(=O)c1c(C)nc2c(c1N)/C(=C/c1ccc[nH]1)C(=O)N2Cc1ccc(C(F)(F)F)cc1 = Criterion not met
• C=C1C(=O)O[C@H]2[C@H]1CC/C(COC(=O)c1c[nH]c3ccccc13)=C\CC[C@@]1(C)O[C@@H]21 = Criterion not met
• Cc1ccc(C2=N[C@H]3CCC[C@@H]3N(c3ccccc3)C(C(Cl)Cl)=N2)cc1 = Criterion met
• Nc1ccc(C2=NN(C(=O)c3cc(-c4ccc(Cl)cc4)nc4ccccc34)C(c3ccc(Cl)cc3)C2)cc1 (centres undefined) = Criterion not met
• CCCCN(CCCC)CC(CN(CC)CC)OC(=O)Nc1ccccc1 (centres undefined) = Criterion met
• O=C(/C(=C/c1ccc([N+](=O)[O-])cc1)SCc1ccc(Cl)cc1)c1ccc(F)cc1 = Criterion met

Challenge: State whether the measured growth reaches 70%, counting equality as reaching it, for O=C1CCC23OC(c4ccccc4N12)C(O)C(O)C3O (centres undefined)
Response given: Criterion met
